MEASUREMENT_PROTOCOL: Plasma levels of lasofoxifene after a single oral dose in healthy postmenopausal women (LC-MS-MS)
Format: in vivo, human
EXPERIMENTAL_CONTEXT: female, human, plasma; single oral dose 0.8 mg, healthy post menopausal women, .5 hours after dosing; read-out: Mean plasma concentration, ng Lasofoxifene per ml plasma
PROPERTY: concentration at 0.5 h (ng/mL)
API: value field is a number in ng/mL; no unit string.

concentration at 0.5 h for Oc1ccc2c(c1)CC[C@H](c1ccccc1)[C@@H]2c1ccc(OCCN2CCCC2)cc1 [lasofoxifene] ?
0.13

----------
MEASUREMENT_PROTOCOL: Plasma levels of lasofoxifene after a single oral dose in healthy postmenopausal women (LC-MS-MS)
Assay type: in vivo, human
EXPERIMENTAL_CONTEXT: female, human, plasma; single oral dose 0.8 mg, healthy post menopausal women, 2 hours after dosing; read-out: Mean plasma concentration, ng Lasofoxifene per ml plasma
Procedure: A dose of 0.8 mg of lasofoxifene was administered to 12 healthy, postmenopausal women and blood samples were analyzed periodically as shown in Table 1. A 1.0 ml sample of human plasma was analyzed for lasofoxifene according to CEDRA's Procedure TM-234 (CEDRA's address). Internal standard used for this procedure was a pentadeuterated lasofoxifene. […] Peak areas of the m/z 414→97.9 daughter ion of lasofoxifene were measured against the peak areas of the mlz 419→97.9 daughter of the internal standard. […]
PROPERTY: concentration at 2 h
Answer shape: numeric part, then the unit.

concentration at 2 h for "Oc1ccc2c(c1)CC[C@H](c1ccccc1)[C@@H]2c1ccc(OCCN2CCCC2)cc1" ?
0.37 ng/mL
